- Tested on: HCMV (AD169)
- test_description: CPE inhibition assay HCMV (AD169) in HFF cells
- Format: cell-based, human cytomegalovirus
- measurement_parameters: Human betaherpesvirus 5, AD169, HFF; Table 2
recorded_metric: EC50 (µg/mL)
Numbers only, in µg/mL.

Incoming: Which EC50 is listed for Nc1nc(O)c2ncn(COC(CO)CO)c2n1 [Gancyclovir, ganciclovir, reference compound] ?
Outgoing: 0.06

Incoming: Which EC50 is listed for [N-]=[N+]=NC(CI)c1cn(COC(CO)CO)c(=O)[nH]c1=O (stereo not shown) [Compound 10c] ?
Outgoing: 10

Incoming: Which EC50 is listed for [N-]=[N+]=NC(CCl)c1cn(COC(CO)CO)c(=O)[nH]c1=O (stereo not shown) [Compound 10b] ?
Outgoing: 10

# next compound below
Incoming: Which EC50 is listed for [N-]=[N+]=NC(CCl)c1cn(CCC(CO)CO)c(=O)[nH]c1=O (stereo not shown) [Compound 21b] ?
Outgoing: 1
